I'd be grateful if you could share measured TGI for these entries.
Test system: COLO 205 colon
Experiment: NCI tumour cell line growth inhibition, 48 h
*1 amine or outer side, *2 acyl side, *3 side chain or, on linkers, in order; H or OH if unused. Where a SMILES comes first, the peptide text is derived from it. [ ]: non-standard residue; d: D form. ξ: configuration not given here. X21 = CC[C@@H](C)C(N[*:1])C(=O)[*:2]; ξR = N=C(N)NCCCC(N)C(=O)O; ξI = CCC(C)C(N)C(=O)O; ξL = CC(C)CC(N)C(=O)O; ξK = NCCCCC(N)C(=O)O; ξV = CC(C)C(N)C(=O)O; ξA = CC(N)C(=O)O

Examples with answers:
| compound | test result |
| --- | --- |
| CSc1nc2c(=O)n(-c3ccccc3)c(=S)n(-c3ccccc3)c2s1 | > 100 µM |
| CC(C)C1CC[C@H](C)C[C@@H]1OC(=O)C(C(=O)O[C@H]1C[C@@H](C)CCC1C(C)C)C(O)[C@@H]1OC(C)(C)O[C@H]1C1COC(C)(C)O1 (stereo partly drawn) | 28.2 µM |
| CNCCCNCCCN1C(=O)c2ccc3c4c(ccc(c24)C1=O)C(=O)N(CCCNCc1ccccc1OC)C3=O | 1.85 µM |

Record TGI for all entries; do not skip any.
1. CC(=O)/C=C(\O)c1[nH]c(C(=O)O)cc1C1CCN(Cc2ccccc2)C1=O (stereo not drawn)
2. COc1ccc(N(C)c2c3ccccc3nc3[nH]c4ccccc4c23)cc1

["42.9 µM", "6.13 µM"]

Value sought for every listed compound: TGI.
1. CCOC(=O)C(O)(NC(=O)NC(O)(C(=O)OCC)C(F)(F)F)C(F)(F)F (stereo not drawn)
2. Cc1cc(=O)oc2cc(OS(C)(=O)=O)ccc12
3. O=C(Nc1cccc(-n2cc(-c3ccncc3)c(-c3ccc(O)c(Cl)c3)n2)c1)Nc1cccc(C(F)(F)F)c1
4. COc1ccc2c(c1)C1(C(=O)N2)C(C#N)=C(c2ccccc2)Nc2c1c(-c1ccccc1)nn2-c1ccccc1 (stereo not drawn)
5. O=C(c1ccc(Cl)cc1)c1ccc(OCCSCCCCCCCCCCSCCOc2ccc(C(=O)c3ccc(Cl)cc3)cc2)cc1
6. CC(NC(=O)C(N)CC(=O)O)NC(=O)N(C)C(C)(C)C (stereo not drawn)
7. CCN(CC)CCCOc1cc2c(cc1OC)C(=O)N1CCC[C@H]1C=N2

["> 100 µM", "> 100 µM", "3.73 µM", "5.83 µM", "> 100 µM", "> 100 µM", "38.6 µM"]

Batch of 5 compounds: report TGI for each.
1. CN(C)CCCn1c2nc(=O)[nH]c(=O)c-2nc2cc(Cl)c(Cl)cc21
2. Cc1c2c(cc3c(=O)ccn(CCN(C)C)c13)c(=O)ccn2CCN(C)C
3. COc1cc(C2c3cc4c(cc3[C@@H](Nc3cccc([N+](=O)[O-])c3)C3COC(=O)[C@H]23)OCO4)cc(OC)c1O (stereo partly drawn)
4. Cc1c(N=Cc2ccc(N(CCC#N)CCC#N)cc2)c(=O)n(-c2ccccc2)n1C
5. OCc1ccc(N(CCN2CCCC2)Cc2ccc(F)cc2)cc1Cl

2.83 µM
24.7 µM
18.1 µM
> 100 µM
21.5 µM

Data point: CCC(C)C1NC(=O)C(CC(C)C)NC(=O)C(C)NC(=O)C(C(C)C)NC(=O)C(CCCCN)NC(=O)C(CC(C)C)NC(=O)C(C(C)C)NC(=O)[C@H](C)NC(=O)C(C(C)CC)NC(=O)C(CCCN=C(N)N)NC(=O)C(CCCCN)NC(=O)C(CCCN=C(N)N)NC(=O)C(CCCCN)NC(=O)C([C@H](C)CC)NC(=O)C(CCCCN)NC1=O (stereo partly drawn) (cyclo(A[ξV][ξL][ξK][ξV][ξA][ξL][ξI][ξK][X21][ξK][ξR][ξK][ξR][ξI])) ; TGI = 3.85 µM
